Estrogen receptor (Homo sapiens) (UniProt Q92731+P03372) Ka data

| compound | relation | Ka, M⁻¹ |
| --- | --- | --- |
| C[C@@]12CCC[C@H]1C1CCc3cc(O)ccc3[C@H]1CC2 (single isomer, unassigned) | = | 2.93e+09 |
| C[C@]12CC[C@@H]3c4cccc(I)c4CCC3[C@@H]1CC[C@@H]2O (single isomer, unassigned) | = | 4.44e+06 |
| C[C@]12CC[C@@H]3c4cccc([N+](=O)[O-])c4CCC3[C@@H]1CC[C@@H]2O (single isomer, unassigned) | < | 1.85e+06 |
| C[C@]12CC[C@@H]3c4ccc(O)cc4C(=O)CC3[C@@H]1CC[C@@H]2O (single isomer, unassigned) | = | 1.09e+09 |
| C[C@]12CC[C@@H]3c4cc([N+](=O)[O-])ccc4CCC3[C@@H]1CC[C@@H]2O (single isomer, unassigned) | < | 1.85e+06 |
| C[C@]12CC[C@@H]3c4cccc(N)c4CCC3[C@@H]1CC[C@@H]2O (single isomer, unassigned) | = | 2.15e+07 |
| C[C@]12CC[C@@H]3c4ccc(O)cc4CC(=O)C3[C@@H]1CC[C@@H]2O (single isomer, unassigned) | = | 3.39e+09 |
| C[C@]12CC[C@@H]3c4cc(N)ccc4CCC3[C@@H]1CC[C@@H]2O (single isomer, unassigned) | = | 1.45e+08 |
| C[C@]12CC[C@@H]3c4ccc(O)cc4C[C@@H](O)C3[C@@H]1CC[C@@H]2O (single isomer, unassigned) | = | 6.3e+07 |
| C[C@]12CC[C@H]3[C@H](CC=C4C[C@@H](O)CC[C@@]43C)[C@@H]1CC[C@@H]2O | = | 2.7e+07 |
| C[C@]12CC[C@@H]3c4cc(O)ccc4CCC3[C@@H]1CC[C@@H]2O (single isomer, unassigned) | = | 2.6e+09 |
| C[C@]12CC[C@@H]3c4c(O)cccc4CCC3[C@@H]1CC[C@@H]2O (single isomer, unassigned) | = | 1.8e+07 |
| C[C@]12CC[C@@H]3c4ccc(O)cc4C[C@H](O)C3[C@@H]1CC[C@@H]2O (single isomer, unassigned) | = | 3.66e+09 |
| C[C@]12CC[C@@H]3c4cc([N+](=O)[O-])c(O)cc4CCC3[C@@H]1CC[C@@H]2O (single isomer, unassigned) | = | 3.7e+06 |
| C[C@]12CC[C@@H]3c4ccc(O)cc4CCC3[C@@H]1C[C@@H](O)C2 (single isomer, unassigned) | = | 2.97e+09 |
| C[C@]12CC[C@@H]3c4c(N)cccc4CCC3[C@@H]1CC[C@@H]2O (single isomer, unassigned) | < | 1.85e+06 |
| C[C@]12CC[C@@H]3c4ccc([N+](=O)[O-])cc4CCC3[C@@H]1CC[C@@H]2O (single isomer, unassigned) | = | 7.77e+06 |
| C[C@]12CC[C@@H]3c4c(cccc4[N+](=O)[O-])CCC3[C@@H]1CC[C@@H]2O (single isomer, unassigned) | < | 1.85e+06 |
| C[C@]12CC[C@@H]3c4ccc(N)cc4CCC3[C@@H]1CC[C@@H]2O (single isomer, unassigned) | = | 2.78e+11 |
| C[C@]12CC[C@@H](O)C[C@@H]1CCC1[C@@H]2CC[C@]2(C)[C@@H](O)CC[C@@H]12 (single isomer, unassigned) | < | 1.85e+06 |
| C[C@]12CC[C@@H]3c4cccc(O)c4CCC3[C@@H]1CC[C@@H]2O (single isomer, unassigned) | = | 2.5e+08 |
| C[C@]12CC[C@H](O)C[C@@H]1CCC1[C@@H]2CC[C@]2(C)[C@@H](O)CC[C@@H]12 (single isomer, unassigned) | = | 1.8e+07 |
